Measured values drawn from patent US10294202B2 for this set.

Quick reference for Plant response rating, Foxtail, Giant among some compounds
Tested on: giant foxtail
procedureText: Test A pre-/postemergence herbicide test
Type: in vivo, Setaria faberii
runParameters: 125 g ai/ha; visual rating, 0 to 100 scale, 0 no effect, 100 complete control; approximately 10 days; preemergence

- compound: "COc1cc(C2CNC(=O)C2C(=O)Nc2ccc(F)c(F)c2F)ccc1F (racemic) [Compound 132]"
  Plant response rating, Foxtail, Giant: 70
- compound: "O=C1NCC(c2cccc(S(F)(F)(F)(F)F)c2)C1C(=O)Nc1ccccc1C(F)(F)F (stereo not shown) [Compound 215]"
  Plant response rating, Foxtail, Giant: 80
- compound: "O=C1NCC(c2ccc(Cl)cc2)C1C(=O)Nc1cccc(F)c1F (stereo not shown) [Compound 218]"
  Plant response rating, Foxtail, Giant: 90
- compound: "Cc1ccc(C2CNC(=O)C2C(=O)Nc2cccc(F)c2F)cc1F (racemic) [Compound 146]"
  Plant response rating, Foxtail, Giant: 80

----------
Tested on: ragweed
procedureText: Test A pre-/postemergence herbicide test
Type: in vivo, Ambrosia elatior
runParameters: preemergence; 500 g ai/ha; 0 to 100 scale, 0 is no effect and 100 is complete control
Quick reference for Plant response rating, Ragweed among some molecules
measuredEndpoint: Plant response rating, Ragweed

- molecule: "CSc1cccc(C2CNC(=O)C2C(=O)Nc2ccccc2Cl)c1 (stereo not drawn) [Compound 291]"
  measuredEndpoint: "Plant response rating, Ragweed"
  valueObserved: 0
- molecule: "O=C1NCC(c2cccc(OC(F)F)c2)C1C(=O)Nc1cccc(F)c1F (stereo not drawn) [Compound 224]"
  measuredEndpoint: "Plant response rating, Ragweed"
  valueObserved: 90
- molecule: "O=C1NCC(c2cccc(C(F)F)c2)C1C(=O)Nc1ccccc1F (racemic) [Compound 210]"
  measuredEndpoint: "Plant response rating, Ragweed"
  valueObserved: 30
- molecule: "O=C1NCC(c2ccc(Cl)s2)C1C(=O)Nc1ccccc1F (stereo not drawn) [Compound 292]"
  measuredEndpoint: "Plant response rating, Ragweed"
  valueObserved: 0
- molecule: "O=C1NCC(c2cccc3ccccc23)C1C(=O)Nc1ccccc1F (stereo not drawn) [Compound 216]"
  measuredEndpoint: "Plant response rating, Ragweed"
  valueObserved: 0
- molecule: "O=C1NC[C@@H](c2cccc(C(F)(F)F)c2)[C@@H]1C(=O)Nc1cccc(F)c1F [Compound 205]"
  measuredEndpoint: "Plant response rating, Ragweed"
  valueObserved: 30
- molecule: "O=C1NCC(c2ccc(Cl)o2)C1C(=O)Nc1cccc(F)c1F (stereo not drawn) [Compound 285]"
  measuredEndpoint: "Plant response rating, Ragweed"
  valueObserved: 0
- molecule: "O=C1NCC(c2ccc(Cl)c(Cl)c2)C1C(=O)Nc1ccccc1Cl (racemic) [Compound 273]"
  measuredEndpoint: "Plant response rating, Ragweed"
  valueObserved: 0
- molecule: "O=C1NC[C@H](c2cccc(C(F)(F)F)c2)[C@H]1C(=O)Nc1ccccc1F [Compound 204]"
  measuredEndpoint: "Plant response rating, Ragweed"
  valueObserved: 80

----------
Tested on: galium
procedureText: Test C pre-/postemergence herbicide test
Assay type: in vivo, Galium aparine
runParameters: Preemergence, 62 g ai/ha; scale 0 to 100 (0 no effect, 100 complete control)
Text: […]

- molecule: "O=C1NCC(c2cccc(OC(F)F)c2)C1C(=O)Nc1ccccc1F (stereo not drawn)"
  Galium plant response rating: 0
- molecule: "CN1CC(c2ccc(F)c(F)c2)C(C(=O)Nc2cccc(F)c2F)C1=O (stereo not drawn)"
  Galium plant response rating: 0
- molecule: "CN1CC(c2cccc(C(F)(F)F)c2)C(C(=O)Nc2cccc(F)c2F)C1=O (stereo not drawn)"
  Galium plant response rating: 80
- molecule: "O=C1NCC(c2cc(F)cc(F)c2)C1C(=O)Nc1ccccc1Cl (racemic)"
  Galium plant response rating: 0
- molecule: "O=C1NC[C@H](c2cccc(C(F)(F)F)c2)[C@H]1C(=O)Nc1cccc(F)c1F"
  Galium plant response rating: 70
- molecule: "CC(C)c1cccc(C2CNC(=O)C2C(=O)Nc2ccccc2F)c1 (stereo not drawn)"
  Galium plant response rating: 0

----------
Quick reference for Plant response rating, Morningglory among some compounds
Tested on: morningglory
procedureText: Test C pre-/postemergence herbicide test
Type: in vivo, Ipomoea coccinea
runParameters: Postemergence, 31 g ai/ha; scale 0 (no effect) to 100 (complete control)
Description: […]
measuredEndpoint: Plant response rating, Morningglory

- compound: "Cc1c(F)cccc1NC(=O)C1C(=O)NCC1c1ccc(F)c(F)c1 (racemic)"
  measuredEndpoint: "Plant response rating, Morningglory"
  valueObserved: 0
- compound: "Cc1ccccc1NC(=O)C1C(=O)NCC1c1cccc(C(F)(F)F)c1 (racemic)"
  measuredEndpoint: "Plant response rating, Morningglory"
  valueObserved: 20
- compound: "O=C1NCC(c2ccc(F)c(F)c2)C1C(=O)Nc1cccc(F)c1F (stereo not shown)"
  measuredEndpoint: "Plant response rating, Morningglory"
  valueObserved: 0
- compound: "O=C1NCC(c2ccc(C(F)(F)F)cc2)C1C(=O)Nc1cccc(F)c1F (stereo not shown)"
  measuredEndpoint: "Plant response rating, Morningglory"
  valueObserved: 0

----------
Tested on: ragweed
procedureText: Test C pre-/postemergence herbicide test
Assay type: in vivo, Ambrosia elatior
runParameters: Preemergence, 250 g ai/ha
measuredEndpoint: Plant response rating (scale of 0 to 100), Ragweed

- compound: "CN1CC(c2cccc(C(F)(F)F)c2)C(C(=O)Nc2cccc(F)c2F)C1=O (centres unmarked)"
  valueObserved: 75
- compound: "O=C1NC[C@H](c2cccc(C(F)(F)F)c2)[C@H]1C(=O)Nc1cccc(F)c1F"
  valueObserved: 98
- compound: "O=C1NCC(c2cccc(Br)c2)C1C(=O)Nc1ccc(F)c(F)c1F (centres unmarked)"
  valueObserved: 35
- compound: "O=C1NCC(c2ccc(C(F)(F)F)cc2)C1C(=O)Nc1ccccc1F (centres unmarked)"
  valueObserved: 85
- compound: "CN1CC(c2ccc(F)c(F)c2)C(C(=O)Nc2cccc(F)c2F)C1=O (centres unmarked)"
  valueObserved: 80

----------
Quick reference for Plant response rating among some compounds
Tested on: mustard, wild
procedureText: Test D pre-/postemergence herbicide test
Assay type: in vivo, Sinapis arvensis
runParameters: Postemergence; 31 g ai/ha; Mustard, Wild; scale 0 to 100

- compound: "O=C1NCC(c2ccc(C(F)(F)F)cc2)C1C(=O)Nc1ccccc1F (stereo not shown)"
  system: "mustard, wild"
  Plant response rating: 35
- compound: "O=C1NCC(c2ccc(Cl)c(F)c2)C1C(=O)Nc1cccc(F)c1F (stereo not shown)"
  system: "mustard, wild"
  Plant response rating: 10
- compound: "O=C1NCC(c2cc(F)c(F)cc2F)C1C(=O)Nc1cccc(F)c1F (stereo not shown)"
  system: "mustard, wild"
  Plant response rating: 60
- compound: "O=C1NCC(c2ccc(F)c(F)c2)C1C(=O)Nc1cccc(F)c1F (stereo not shown)"
  system: "mustard, wild"
  Plant response rating: 0

----------
Test system: corn
procedureText: Test A pre-/postemergence herbicide test
Assay type: in vivo, Zea mays
runParameters: Preemergence, 1000 g ai/ha; visual rating on 0 to 100 scale (0 no effect, 100 complete control), approx. 10 days

- compound: "Cc1c(Cl)cccc1NC(=O)C1C(=O)NCC1c1ccc(F)c(F)c1 (racemic)"
  Plant response rating, Corn: 20
- compound: "CN(C(=O)C1C(=O)NCC1c1ccc(F)c(F)c1)c1ccccc1F (stereo not drawn)"
  Plant response rating, Corn: 0
- compound: "O=C1NCC(c2ccc(F)c(F)c2)C1C(=O)Nc1cccc(Cl)c1 (racemic)"
  Plant response rating, Corn: 0

----------
Tested on: barnyardgrass
procedureText: Test C pre-/postemergence herbicide test
Format: in vivo, Echinochloa crus-galli
runParameters: Postemergence, 31 g ai/ha; scale 0 to 100 (0 no effect, 100 complete control)
Text: […]

- molecule: "CN1CC(c2ccc(F)c(F)c2)C(C(=O)Nc2cccc(F)c2F)C1=O (stereo not shown)"
  Plant response rating, Barnyardgrass: 10
- molecule: "O=C1NCC(c2cccc(Br)c2)C1C(=O)Nc1ccc(F)c(F)c1F (stereo not shown)"
  Plant response rating, Barnyardgrass: 5
- molecule: "O=C1NCC(c2ccc(F)c(F)c2)C1C(=O)Nc1ccc(F)c(F)c1F (stereo not shown)"
  Plant response rating, Barnyardgrass: 0
- molecule: "CN1CC(c2ccc(C(F)(F)F)cc2)C(C(=O)Nc2cccc(F)c2F)C1=O (stereo not shown)"
  Plant response rating, Barnyardgrass: 0

----------
Quick reference for Crabgrass, Large plant response rating among some molecules
Tested on: crabgrass, large
procedureText: Test C pre-/postemergence herbicide test
Format: in vivo, Digitaria sanguinalis
runParameters: Preemergence, 31 g ai/ha; scale 0 to 100, 0 is no effect and 100 is complete control
From the text: […]
measuredEndpoint: Crabgrass, Large plant response rating

- molecule: "Cc1ccccc1NC(=O)C1C(=O)NCC1c1cccc(C(F)(F)F)c1 (racemic)"
  valueObserved: 98
- molecule: "CN1CC(c2ccc(F)c(F)c2)C(C(=O)Nc2cccc(F)c2F)C1=O (centres unmarked)"
  valueObserved: 95
- molecule: "O=C1NCC(c2cccc(OC(F)(F)F)c2)C1C(=O)Nc1ccccc1F (centres unmarked)"
  valueObserved: 90
- molecule: "O=C1NCC(c2cc(F)cc(F)c2)C1C(=O)Nc1ccccc1Cl (racemic)"
  valueObserved: 85
- molecule: "O=C1NCC(c2cccc(C(F)(F)F)c2)C1C(=O)Nc1ccc(F)c(F)c1F (centres unmarked)"
  valueObserved: 95
- molecule: "CC(C)c1cccc(C2CNC(=O)C2C(=O)Nc2ccccc2F)c1 (centres unmarked)"
  valueObserved: 95
- molecule: "O=C1NCC(c2ccc(F)cc2)C1C(=O)Nc1ccc(F)c(F)c1F (racemic)"
  valueObserved: 98
- molecule: "O=C1NCC(c2ccc(C(F)(F)F)cc2)C1C(=O)Nc1cccc(F)c1F (racemic) [Compound 202]"
  valueObserved: 90
- molecule: "O=C1NCC(c2ccc(C(F)(F)F)cc2)C1C(=O)Nc1cccc(F)c1F (centres unmarked) [Compound 80]"
  valueObserved: 95
- molecule: "CC(C)c1cccc(C2CNC(=O)C2C(=O)Nc2cccc(F)c2F)c1 (centres unmarked)"
  valueObserved: 95
- molecule: "O=C1NCC(c2cccc(OC(F)F)c2)C1C(=O)Nc1cccc(F)c1F (centres unmarked)"
  valueObserved: 90
